- Target or system: human norepinephrine transporter (hNET) (Homo sapiens)
- Construct: expressed in transfected cells; host or cells: HEK-293 cells (membrane preparation)
- Sequence (P23975 whole entry): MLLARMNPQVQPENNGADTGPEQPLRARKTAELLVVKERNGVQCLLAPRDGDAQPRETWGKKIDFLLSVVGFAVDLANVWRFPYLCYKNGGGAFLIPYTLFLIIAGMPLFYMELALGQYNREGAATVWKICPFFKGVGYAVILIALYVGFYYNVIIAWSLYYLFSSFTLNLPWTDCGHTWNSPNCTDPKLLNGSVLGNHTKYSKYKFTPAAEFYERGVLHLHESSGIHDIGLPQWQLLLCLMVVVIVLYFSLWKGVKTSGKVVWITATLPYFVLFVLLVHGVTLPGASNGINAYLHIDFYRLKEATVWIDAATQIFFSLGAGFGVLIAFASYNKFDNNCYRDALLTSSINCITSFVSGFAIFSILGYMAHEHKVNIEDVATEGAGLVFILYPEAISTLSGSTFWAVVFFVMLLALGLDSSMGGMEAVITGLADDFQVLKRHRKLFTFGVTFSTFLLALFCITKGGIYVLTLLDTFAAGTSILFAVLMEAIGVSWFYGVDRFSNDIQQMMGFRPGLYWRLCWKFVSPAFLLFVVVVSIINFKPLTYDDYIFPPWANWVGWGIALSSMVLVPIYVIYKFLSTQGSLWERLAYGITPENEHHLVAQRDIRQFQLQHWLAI
- Measurement protocol: hNET receptor binding ([125I]-RTI-55 displacement, membranes of transfected HEK-293 cells)
- Run parameters: HEK-293 membranes, Ki from IC50 by Cheng-Prusoff, read-out: NET Ki
- Description: The ability of the compounds of the present invention to inhibit a norepinephrine transporter and/or a serotonin transporter can be determined using conventional radioligand receptor transport assays. The receptors can be heterologously expressed in cell lines and experiments conducted in membrane preparations from the cell lines that express a norepinephrine transporter and/or a serotonin transporter. […]
Structures can show the parent of a compound that is named as a salt.
Value type: Ki (nM)

Known results for compounds:
Compound	Numeric result
Fc1cccc(-n2nc(OC[C@H]3CCCNC3)c3c(F)cccc32)c1 [Example 82, hydrochloride]	23.2
Fc1ccc2c(c1)c(OCC1CCCNC1)nn2-c1ccccn1 (stereo not shown) [Example 99, hydrochloride]	319
Fc1ccc(-n2nc(OC[C@@H]3CNCCO3)c3ccccc32)cc1F [Example 23, hydrochloride]	11.5

I: Fc1ccc(-n2nc(OC[C@H]3CCNC3)c3ccccc32)cc1F [Example 35, hydrochloride]
II: Clc1cc(Cl)cc(-n2nc(OC3CCNCC3)c3ccccc32)c1 [Example 29, hydrochloride]
Q: Compare I and II and name the one whose reported Ki is smaller. Bench note: the answer is the label of the chosen record.
Result: I
(I: 24 nM, II: 4050 nM)

I: Fc1ccc(-n2nc(OC[C@@H]3CNCCO3)c3ccccc32)c(F)c1 [Example 3, maleate]
II: Cc1ccc2c(OCC3CCCNC3)nn(-c3ccccc3F)c2c1 (stereo not shown) [Example 74, hydrochloride]
III: Fc1ccc(-n2nc(OC3CCNCC3)c3cc(F)ccc32)cc1 [Example 79, hydrochloride]
Q: Your job: order these 3 records by Ki, ascending. Rank the items, then write their labels in that order.
Result: I, III, II

P: Cc1ccc2c(OC3CCNCC3)nn(-c3ccccc3F)c2c1 [Example 72, hydrochloride]
Q: Fc1ccc(F)c(-n2nc(OC[C@H]3CCNC3)c3ccccc32)c1 [Example 32, hydrochloride]
Q: Compare P and Q and name the one whose reported Ki is smaller. Bench note: the answer is the label of the chosen record.
Result: Q
